Overview of recorded Plant response rating, Ragweed for various molecules
System: ragweed (common ragweed, Ambrosia elatior)
Test: Test A postemergence, ragweed
Format: in vivo
Conditions: 31 g ai/ha, postemergence; 0 to 100 scale, 0 is no effect, 100 is complete control; approximately 10 days
Number only, please.

molecule.smiles: FC(F)(F)C(F)(F)CCCOc1c(Br)cccc1Oc1ncc(Cl)cn1
Plant response rating, Ragweed: 10
//
molecule.smiles: FC(F)(F)CCCOc1c(Br)cccc1Oc1ncc(Cl)cn1
Plant response rating, Ragweed: 0
//
molecule.smiles: FC(F)(F)CCOc1c(Cl)cccc1Oc1ncc(Cl)cn1
Plant response rating, Ragweed: 0

Now turn to the next molecule.
// query Plant response rating, Ragweed value for entry N#CCCCOc1c(Cl)cccc1Oc1ncc(Cl)cn1
10
